- Tgt: Ornithine decarboxylase (Mus musculus)
- Experiment: In vivo inhibition of ornithine de-carboxylase (ODC) activity induced by 12-0-tetradecanoylphorbol 13-acetate (TPA) in mouse skin
- Format: functional, organism-based
Readout Label: Average (%)

{"Compound": "C#CCC1CC(C)(C)C(/C=C/C(C)=C/C=C/C(C)=C/C(=O)O)=C(C)C1=O (stereo not drawn)", "Unit Tag": "%", "Measured": 47}
{"Compound": "CCC1CC(C)(C)C(/C=C/C(C)=C/C=C/C(C)=C/C(=O)OC)=C(C)C1=O (stereo not drawn)", "Unit Tag": "%", "Measured": 31}
{"Compound": "CC1=C(/C=C/C(C)=C/C=C/C(C)=C/C(=O)O)C(C)(C)CC(C)(C)C1=O", "Unit Tag": "%", "Measured": 26}
{"Compound": "COC(=O)/C=C(C)/C=C/C=C(C)/C=C/C1=C(C)C(=O)CCC1(C)C", "Unit Tag": "%", "Measured": 18}
{"Compound": "C=CCC1CC(C)(C)C(/C=C/C(C)=C/C=C/C(C)=C/C(=O)OC)=C(C)C1=O (stereo not drawn)", "Unit Tag": "%", "Measured": 56}
{"Compound": "COC(=O)/C=C(C)/C=C/C=C(C)/C=C/C1=C(C)C(=O)C(C)CC1(C)C (stereo not drawn)", "Unit Tag": "%", "Measured": 28}
{"Compound": "CC1=C(/C=C/C(C)=C/C=C/C(C)=C/C(=O)O)C(C)(C)CC(C)C1=O (stereo not drawn)", "Unit Tag": "%", "Measured": 26}
{"Compound": "COC(=O)/C=C(C)/C=C/C=C(C)/C=C/C1=C(C)C(=O)C(C)(C)CC1(C)C", "Unit Tag": "%", "Measured": 22}
{"Compound": "C=CCC1CC(C)(C)C(/C=C/C(C)=C/C=C/C(C)=C/C(=O)O)=C(C)C1=O (stereo not drawn)", "Unit Tag": "%", "Measured": 68}
{"Compound": "CC1=C(/C=C/C(C)=C/C=C/C(C)=C/C(=O)Nc2ccc(O)cc2)C(C)(C)CCC1", "Unit Tag": "%", "Measured": 60}
{"Compound": "CC1=C(/C=C/C(C)=C/C=C/C(C)=C/C(=O)O)C(C)(C)CCC1", "Unit Tag": "%", "Measured": 8}
{"Compound": "COC(=O)/C=C(C)/C=C/C=C(C)/C=C/C1=C(C)C(=O)C(Cc2ccccc2)CC1(C)C (stereo not drawn)", "Unit Tag": "%", "Measured": 56}
{"Compound": "COC(=O)/C=C(C)/C=C/C=C(C)/C=C/C1=C(C)C(=O)C(C/C=C/c2ccccc2)CC1(C)C (stereo not drawn)", "Unit Tag": "%", "Measured": 31}
{"Compound": "C#CCC1CC(C)(C)C(/C=C/C(C)=C/C=C/C(C)=C/C(=O)OC)=C(C)C1=O (stereo not drawn)", "Unit Tag": "%", "Measured": 34}
{"Compound": "CC1=C(/C=C/C(C)=C/C=C/C(C)=C/C(=O)O)C(C)(C)CCC1=O (stereo in doubt; 3a)", "Unit Tag": "%", "Measured": 17}
{"Compound": "CC1=C(/C=C/C(C)=C/C=C/C(C)=C/C(=O)O)C(C)(C)CC(Cc2ccccc2)C1=O (stereo not drawn)", "Unit Tag": "%", "Measured": 34}
{"Compound": "CCC1CC(C)(C)C(/C=C/C(C)=C/C=C/C(C)=C/C(=O)O)=C(C)C1=O (stereo not drawn)", "Unit Tag": "%", "Measured": 40}
{"Compound": "CC1=C(/C=C/C(C)=C/C=C/C(C)=C/C(=O)O)C(C)(C)CC(C/C=C/c2ccccc2)C1=O (stereo not drawn)", "Unit Tag": "%", "Measured": 23}
